B1: TRIM55 (parent)
chain: FQASNPYLPTRGGTTMASGGRFRC

- Variants of: B1
- assay.remarks: protein stability index of a GFP-peptide fusion (GPS, HEK-293T) (PSI 1-6); higher = more stable;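 further: lentivirally expressed fusions sorted by FACS into six bins by GFP to DsRed ratio, PSI derived from sequencing read proportions per bin multiplied by bin number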
- test.parameters: c terminus: a fixed tail appended
Assign protein stability index to each entry below.

protein stability index in this record for FQASNPYLPTTGGTTMASGGRFRC [R11T] : 1.65

Record summary for FQASNPYLPTRGGTGMASGGRFRC [T15G] : reported protein stability index = 2.85

// sample FQASNPYLPTDGGTTMASGGRFRC [R11D] , its protein stability index was 2

Form field protein stability index, entry FQALNPYLPTRGGTTMASGGRFRC [S4L] : 1.66

// sample FQAINPYLPTRGGTTMASGGRFRC [S4I] , its protein stability index was 1.88

Record FQASNNYLPTRGGTTMASGGRFRC [P6N] , field protein stability index: 2.72

Entry FQASNPYLPTRGGTTEASGGRFRC [M16E] — recorded protein stability index = 1.12

The recorded protein stability index for FQASNPYLPTRGGTTMASGERFRC [G20E] is 1.97

# variant FQASNPYCPTRGGTTMASGGRFRC [L8C] ; its protein stability index = 3.09

Measured protein stability index of FQASNPYLPTRGGTTMASGGRRRC [F22R] : 2.13

// protein stability index value for FQASNPYGPTRGGTTMASGGRFRC [L8G] : 2.02

Entry FQASNPYLPTRGGTTMASGGRFPC [R23P] — recorded protein stability index = 2.91

Looking up FQASNPYLPTRGGTTYASGGRFRC [M16Y] , I see its protein stability index listed as 1.98

The value of protein stability index measured for the variant FQASNPYLPTRGGTTMASGGRPRC [F22P] turned out to be 3.87

// protein stability index lookup, variant = FQASNPYLPTRGGTFMASGGRFRC [T15F] , result: 1.57

The variant listed as FQASNPYLPTRGGTTMASGGMFRC [R21M] has a reported protein stability index of 1.81

get_value(item= FQASNPYLPTRGGTTMWSGGRFRC [A17W] , readout=protein stability index) returns 1.76

Item: FQASPPYLPTRGGTTMASGGRFRC [N5P] | protein stability index: 2.22

Field protein stability index (entry FQASNPYLPTRGGTTMASGGRFRR [C24R] ) reads 1.5

# protein stability index (variant: FQASNPYLPDRGGTTMASGGRFRC [T10D] ) is 1.61

The value of protein stability index measured for the variant QQASNPYLPTRGGTTMASGGRFRC [F1Q] turned out to be 3.91

Summary for this variant, FQASNPYLPTRGGHTMASGGRFRC [T14H] : protein stability index is 1.37

Summary for this variant, FQASNPYLPTRGGTTMASGGRERC [F22E] : protein stability index is 2.46

Input FQASYPYLPTRGGTTMASGGRFRC [N5Y] . Output protein stability index: 2.14

Please fill in: protein stability index reported for FQASNPYLPTRGGTTMQSGGRFRC [A17Q] = 2.02

Record FQASNPYLPTRNGTTMASGGRFRC [G12N] . Reported protein stability index: 1.62

protein stability index recorded for this variant, FQASNPYLPTRGGTTMASGGRFRI [C24I] , is 2.03

The variant listed as FQASNPYLPTRGGTTIASGGRFRC [M16I] has a reported protein stability index of 2.83

FQASNPYLPTRGGTTMASGGRFAC [R23A] has a reported protein stability index of 2.37

So, FQASNPYLPTRGGTTMASGGRTRC [F22T] ? Its protein stability index was 1.8

Looking up FQASNPYLPTRGGTTFASGGRFRC [M16F] , I see its protein stability index listed as 1.76

# variant FQASNPYLPTRGGTTMASGGQFRC [R21Q] ; its protein stability index = 1.85

For reference, reported protein stability index for FQASNPYLPTMGGTTMASGGRFRC [R11M] stands at 2.11

Looking up FQASNPYLTTRGGTTMASGGRFRC [P9T] , I see its protein stability index listed as 1.73

Recorded protein stability index (variant FQASNPYPPTRGGTTMASGGRFRC [L8P] ): 1.92

For reference, reported protein stability index for FQASNPQLPTRGGTTMASGGRFRC [Y7Q] stands at 3.45

Lab book: protein stability index of FQASNPYLPWRGGTTMASGGRFRC [T10W] noted as 2.81

Recorded result, FQASNPYLPTRGWTTMASGGRFRC [G13W] , protein stability index: 3.33
